# target_system: E1p-ec (Escherichia coli, UniProt P0AFG8)
# Sequence (P0AFG8 2-887 limits assumed): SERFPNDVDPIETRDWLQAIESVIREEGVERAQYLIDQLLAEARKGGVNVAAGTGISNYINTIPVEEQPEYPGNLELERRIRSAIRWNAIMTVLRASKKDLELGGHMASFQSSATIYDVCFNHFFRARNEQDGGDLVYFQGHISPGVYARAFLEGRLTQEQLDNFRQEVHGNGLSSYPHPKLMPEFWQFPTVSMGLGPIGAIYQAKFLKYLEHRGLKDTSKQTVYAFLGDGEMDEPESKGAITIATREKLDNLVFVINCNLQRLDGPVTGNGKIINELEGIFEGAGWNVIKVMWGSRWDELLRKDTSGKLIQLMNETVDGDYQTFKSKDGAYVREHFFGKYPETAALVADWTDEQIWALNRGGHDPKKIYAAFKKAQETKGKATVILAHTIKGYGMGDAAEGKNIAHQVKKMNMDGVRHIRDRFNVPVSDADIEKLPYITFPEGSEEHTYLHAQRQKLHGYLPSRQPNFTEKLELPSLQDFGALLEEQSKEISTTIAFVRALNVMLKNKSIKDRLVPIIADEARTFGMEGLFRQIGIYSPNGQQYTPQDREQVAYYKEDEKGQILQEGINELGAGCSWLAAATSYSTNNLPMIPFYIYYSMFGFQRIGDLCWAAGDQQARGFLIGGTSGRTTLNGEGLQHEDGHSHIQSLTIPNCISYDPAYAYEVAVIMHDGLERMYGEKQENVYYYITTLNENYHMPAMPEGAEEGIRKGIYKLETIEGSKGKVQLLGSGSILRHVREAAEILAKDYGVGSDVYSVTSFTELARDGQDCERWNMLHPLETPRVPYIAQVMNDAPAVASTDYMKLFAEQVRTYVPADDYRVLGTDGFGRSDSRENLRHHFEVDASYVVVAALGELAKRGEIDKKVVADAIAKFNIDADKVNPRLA
# run_description: CD titration of E1p-ec by acetylphosphinate
# Type: binding
# particulars: read-out: Kd,AcPhi; E1p-ec complexed with 0.20 mM ThDP; CD319
parameter_measured: pKd
In simple prose, pKd is minus the logarithm base ten of a concentration in moles per litre.

Give me measured pKd, please, for this molecule: CC(=O)[PH](=O)[O-].[Na+] [AcPhi, acetylphosphinic acid sodium salt] 7.44

* * *

# target_system: E1p-h (Homo sapiens, UniProt P08559+P11177)
# run_description: CD titration of E1p-h by acetylphosphinate
# Type: binding
# particulars: read-out: Kd,AcPhi; E1p-h complexed with MeOThDP
parameter_measured: Kd (nM)
The reply should contain only the number, in nM.

System E1p-h (Homo sapiens, UniProt P08559+P11177). Read-out Kd. Item CC(=O)[PH](=O)[O-].[Na+] [AcPhi, acetylphosphinic acid sodium salt] . Report value. 1360

* * *

# target_system: DXPS (Escherichia coli, UniProt P77488)
# Sequence (P77488 whole entry): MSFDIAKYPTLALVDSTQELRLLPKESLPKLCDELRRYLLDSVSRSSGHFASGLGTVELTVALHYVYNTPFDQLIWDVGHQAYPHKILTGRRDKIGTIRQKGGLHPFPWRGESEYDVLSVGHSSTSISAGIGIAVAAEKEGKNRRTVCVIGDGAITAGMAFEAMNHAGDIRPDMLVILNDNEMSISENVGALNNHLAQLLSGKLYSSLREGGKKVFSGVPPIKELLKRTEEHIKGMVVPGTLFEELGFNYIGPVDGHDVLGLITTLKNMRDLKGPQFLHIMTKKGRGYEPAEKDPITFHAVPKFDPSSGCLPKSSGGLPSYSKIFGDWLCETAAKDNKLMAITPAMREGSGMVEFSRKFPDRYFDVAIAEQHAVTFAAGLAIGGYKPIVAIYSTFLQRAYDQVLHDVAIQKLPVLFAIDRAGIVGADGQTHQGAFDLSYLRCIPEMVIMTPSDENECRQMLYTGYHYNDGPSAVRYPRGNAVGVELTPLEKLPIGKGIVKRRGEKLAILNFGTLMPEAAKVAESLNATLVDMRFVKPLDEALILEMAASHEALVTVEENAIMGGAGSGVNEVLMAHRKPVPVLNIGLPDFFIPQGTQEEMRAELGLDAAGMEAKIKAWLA
# run_description: CD titration of apo-DXPS with ThTTDP
# Format: binding
# particulars: read-out: Kd,ThTTDP; CD titration, CD331; in the presence of 10 µM MeOThDP
parameter_measured: Kd (µM)
Quick note: give the figure in µM, leave out the unit.

Look up and report measured Kd for this entry: Cc1ncc(Cn2c(C)c(CCOP(=O)(O)OP(=O)(O)O)sc2=S)c(N)n1 [ThTTDP, Thiamin 2-thiothiazolone diphosphate] 0.6

* * *

# target_system: E1p-h (Homo sapiens, UniProt P08559+P11177)
# Sequence (P08559 30-390): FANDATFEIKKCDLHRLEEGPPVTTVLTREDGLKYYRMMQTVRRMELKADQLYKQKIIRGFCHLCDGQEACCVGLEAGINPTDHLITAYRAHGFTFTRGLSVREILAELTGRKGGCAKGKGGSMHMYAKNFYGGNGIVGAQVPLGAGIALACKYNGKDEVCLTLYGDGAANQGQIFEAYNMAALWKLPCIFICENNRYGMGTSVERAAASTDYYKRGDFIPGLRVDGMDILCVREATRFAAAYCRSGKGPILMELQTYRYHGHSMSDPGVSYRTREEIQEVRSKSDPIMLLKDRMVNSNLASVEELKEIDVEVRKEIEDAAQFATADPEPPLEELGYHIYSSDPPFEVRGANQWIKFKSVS
# Sequence (P11177 31-359): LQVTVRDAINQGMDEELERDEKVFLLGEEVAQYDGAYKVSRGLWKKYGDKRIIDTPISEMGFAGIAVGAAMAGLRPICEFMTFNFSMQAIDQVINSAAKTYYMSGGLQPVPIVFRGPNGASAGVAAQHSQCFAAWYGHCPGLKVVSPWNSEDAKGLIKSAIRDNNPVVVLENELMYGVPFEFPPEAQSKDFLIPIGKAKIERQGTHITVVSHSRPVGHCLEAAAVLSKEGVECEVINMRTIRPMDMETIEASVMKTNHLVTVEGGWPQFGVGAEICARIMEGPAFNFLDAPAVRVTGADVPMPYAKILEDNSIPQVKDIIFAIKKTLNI
# run_description: Quenching of intrinsic fluorescence of E1p-h
# Assay type: binding
# particulars: read-out: Kd from quenching of E1p-h fluorescence
parameter_measured: pKd
Scale: negative log10 of molar concentration, which is what pKd denotes.

Give the reported pKd for this compound. COc1ncc(C[n+]2csc(CCOP(=O)(O)OP(=O)(O)O)c2C)c(N)n1 [MeOThDP, 2′-methoxythiamin diphosphate] 4.79

These data points were gathered from paper PMC4852132.
